# Test system: HCT-116
# assay_remarks: cells
# setup_conditions: Homo sapiens, HCT-116, 96 h
# Description: Antiproliferative activity against ALK-negative human HCT-116 cells assessed as inhibition of cell growth incubated for 96 hrs by MTT assay
quantity_name: pIC50
// returns pIC50 (minus log10 of molar concentration), number only

Recorded pIC50 of Cc1cc(Nc2ncc(Cl)c(Nc3ccccc3S(=O)(=O)C(C)C)n2)c(OC(C)C)cc1C1CCN(C(=O)SCC(=S)N2CCN(S(C)(=O)=O)CC2)CC1 , please.
5.45

Now the molecule Cc1cc(Nc2ncc(Cl)c(Nc3ccccc3S(=O)(=O)C(C)C)n2)c(OC(C)C)cc1C1CCN(C(=S)SCC(=O)N2CCSCC2)CC1
5.41

Now the molecule CCN1CCN(C(=S)CSC(=O)N2CCC(c3cc(OC(C)C)c(Nc4ncc(Cl)c(Nc5ccccc5S(=O)(=O)C(C)C)n4)cc3C)CC2)CC1
5.69

Now the molecule Cc1cc(Nc2ncc(Cl)c(Nc3ccccc3S(=O)(=O)C(C)C)n2)c(OC(C)C)cc1C1CCN(C(=O)SCC(=S)N2CC(C)N(C)C(C)C2)CC1 (configuration not stated)
5.40

Now the molecule Cc1cc(Nc2ncc(Cl)c(Nc3ccccc3S(=O)(=O)C(C)C)n2)c(OC(C)C)cc1C1CCN(C(=O)SCC(=S)N2CCNC(C)C2)CC1 (configuration not stated)
5.55
